# assay_explanation: Acute toxicity in mice, DL50 dose
# measurement_parameters: mouse, in vivo, ip, intraperitoneal, suspension in aqueous carboxymethylcellulose, observed one week

{"molecule": "COC(=O)C1Oc2ccc(Cl)cc2C(C)(c2cccc(C(F)(F)F)c2)O1 (stereo not drawn) [Example 18]", "LD50 at 168 h": "> 1000 mg/kg"}
{"molecule": "COC(=O)C1Oc2ccc(Cl)cc2C(Cc2ccccc2)(c2ccccc2)O1 (single isomer, unassigned) [Example 32]", "LD50 at 168 h": "> 1000 mg/kg"}
{"molecule": "CC1(C)OC(C(=O)O)Oc2ccc(Cl)cc21 (stereo not drawn) [Example 2]", "LD50 at 168 h": "450 mg/kg"}
{"molecule": "COC(=O)C1Oc2ccc(OC)cc2C(C)(c2ccccc2)O1 (single isomer, unassigned) [Example 30]", "LD50 at 168 h": "> 1000 mg/kg"}
{"molecule": "CCC1(CC)OC(C(=O)O)Oc2ccc(Cl)cc21 (stereo not drawn) [Example 1]", "LD50 at 168 h": "200 mg/kg"}
{"molecule": "C=CC1(c2ccccc2)OC(C(=O)OC)Oc2ccc(Cl)cc21 (single isomer, unassigned) [Example 22]", "LD50 at 168 h": "~700 mg/kg"}

----------
# Tested on: male rats of the Sprague Dawley S.P.F. strain
# assay_explanation: Hypolipemiant activity in rats on sucrose- and cholesterol-rich regime, % variation of levels versus untreated controls
# Type: in vivo, rat (Sprague Dawley S.P.F.)
# measurement_parameters: 5 mg/kg day, 10 days, esophagus tube, vs untreated controls

{"molecule": "C=CC1(c2ccccc2)OC(C(=O)OC)Oc2ccc(Cl)cc21 (single isomer, unassigned)", "unit_tag": "%", "% Variation of levels, Total Lipids": -34}
{"molecule": "COC(=O)C1Oc2ccc(OC)cc2C(C)(c2ccccc2)O1 (single isomer, unassigned)", "unit_tag": "%", "% Variation of levels, Total Lipids": -41}
{"molecule": "COC(=O)C1Oc2ccc(Cl)cc2C(C)(c2cccc(C(F)(F)F)c2)O1 (stereo not shown)", "unit_tag": "%", "% Variation of levels, Total Lipids": -51}
{"molecule": "COC(=O)C1Oc2ccc(Cl)cc2C(Cc2ccccc2)(c2ccccc2)O1 (single isomer, unassigned)", "unit_tag": "%", "% Variation of levels, Total Lipids": -41}
